- Test parameters: in n-butanol, 283.2 K
Measured endpoint: solubility (mole fraction)

>>> value_measured("CN1c2ccccc2C(=O)N2CCc3c([nH]c4ccccc34)[C@H]21")
0.000112

###

- Test parameters: in isopropanol, 283.2 K
Measured endpoint: solubility (mole fraction)

>>> value_measured("CN1c2ccccc2C(=O)N2CCc3c([nH]c4ccccc34)[C@H]21")
"7e-05"

###

- Test parameters: in cyclohexane, 323.2 K
Measured endpoint: solubility (mole fraction)

>>> value_measured("CN1c2ccccc2C(=O)N2CCc3c([nH]c4ccccc34)[C@H]21")
"9.36e-06"

###

- Test parameters: in chloroform, 283.2 K
Measured endpoint: solubility (mole fraction)

>>> value_measured("CN1c2ccccc2C(=O)N2CCc3c([nH]c4ccccc34)[C@H]21")
0.000683

###

- Test parameters: in cyclohexane, 283.2 K
Measured endpoint: solubility (mole fraction)

>>> value_measured("CN1c2ccccc2C(=O)N2CCc3c([nH]c4ccccc34)[C@H]21")
"1.68e-06"

###

- Test parameters: in isopropanol, 313.2 K
Measured endpoint: solubility (mole fraction)

>>> value_measured("CN1c2ccccc2C(=O)N2CCc3c([nH]c4ccccc34)[C@H]21")
0.000181

###

- Test parameters: in n-butanol, 313.2 K
Measured endpoint: solubility (mole fraction)

>>> value_measured("CN1c2ccccc2C(=O)N2CCc3c([nH]c4ccccc34)[C@H]21")
0.000317

###

- Test parameters: in ethyl acetate, 303.2 K
Measured endpoint: solubility (mole fraction)

>>> value_measured("CN1c2ccccc2C(=O)N2CCc3c([nH]c4ccccc34)[C@H]21")
0.000255

###

- Test parameters: in acetone, 283.2 K
Measured endpoint: solubility (mole fraction)

>>> value_measured("CN1c2ccccc2C(=O)N2CCc3c([nH]c4ccccc34)[C@H]21")
0.000216

###

- Test parameters: in ethanol, 283.2 K
Measured endpoint: solubility (mole fraction)

>>> value_measured("CN1c2ccccc2C(=O)N2CCc3c([nH]c4ccccc34)[C@H]21")
"6.12e-05"

###

- Test parameters: in chloroform, 293.2 K
Measured endpoint: solubility (mole fraction)

>>> value_measured("CN1c2ccccc2C(=O)N2CCc3c([nH]c4ccccc34)[C@H]21")
0.000876

###

- Test parameters: in ethyl acetate, 323.2 K
Measured endpoint: solubility (mole fraction)

>>> value_measured("CN1c2ccccc2C(=O)N2CCc3c([nH]c4ccccc34)[C@H]21")
0.000412

###

- Test parameters: in n-butanol, 293.2 K
Measured endpoint: solubility (mole fraction)

>>> value_measured("CN1c2ccccc2C(=O)N2CCc3c([nH]c4ccccc34)[C@H]21")
0.000139

###

- Test parameters: in dichloromethane, 288.2 K
Measured endpoint: solubility (mole fraction)

>>> value_measured("CN1c2ccccc2C(=O)N2CCc3c([nH]c4ccccc34)[C@H]21")
0.00037

###

- Test parameters: in n-pentane, 288.2 K
Measured endpoint: solubility (mole fraction)

>>> value_measured("CN1c2ccccc2C(=O)N2CCc3c([nH]c4ccccc34)[C@H]21")
"2.2e-06"

###

- Test parameters: in diethyl ether, 288.2 K
Measured endpoint: solubility (mole fraction)

>>> value_measured("CN1c2ccccc2C(=O)N2CCc3c([nH]c4ccccc34)[C@H]21")
"5.16e-05"

###

- Test parameters: in methanol, 283.2 K
Measured endpoint: solubility (mole fraction)

>>> value_measured("CN1c2ccccc2C(=O)N2CCc3c([nH]c4ccccc34)[C@H]21")
"3.52e-05"
